# EXPERIMENTAL TARGET: D2S receptor (Homo sapiens)
# Sequence (P14416 1-414 isoform P14416-2): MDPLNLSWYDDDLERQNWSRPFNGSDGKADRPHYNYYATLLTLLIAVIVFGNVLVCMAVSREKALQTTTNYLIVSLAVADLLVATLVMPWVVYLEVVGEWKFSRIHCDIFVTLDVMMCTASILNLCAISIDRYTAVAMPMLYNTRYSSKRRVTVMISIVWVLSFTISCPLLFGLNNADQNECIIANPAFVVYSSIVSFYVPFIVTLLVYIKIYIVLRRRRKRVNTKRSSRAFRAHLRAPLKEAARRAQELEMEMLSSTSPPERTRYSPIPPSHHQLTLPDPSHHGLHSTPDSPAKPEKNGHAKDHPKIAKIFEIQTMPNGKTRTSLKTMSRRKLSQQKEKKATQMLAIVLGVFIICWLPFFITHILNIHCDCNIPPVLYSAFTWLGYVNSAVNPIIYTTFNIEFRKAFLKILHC
# ASSAY METHOD TEXT: Functional activity test on D2S receptor, cAMP detection (Gi antagonist test)
# STATED CONDITIONS: cultured HEK293/D2S cells, forskolin + dopamine EC90
pIC50: −log10 of the molar value.
QUANTITY NAME: pIC50

COMPOUND | EXPERIMENTAL TARGET | VALUE OBSERVED
CN1C(=O)CN2c3c1cccc3[C@]1(C)CN(CCCC(=O)c3ccc(F)cc3)CC[C@H]21 | D2S receptor (Homo sapiens) | 6.58
CN1C(=O)CN2c3c1cccc3[C@@]1(C)CN(CCCC(=O)c3ccc(F)cc3)CC[C@@H]21 | D2S receptor (Homo sapiens) | 7.20
CN1C(=O)CN2c3c(cccc31)[C@@H]1CN(CCCC(=O)c3ccc(F)cc3)CC[C@@H]12 [Comparative embodiment 1-A, reference compound] | D2S receptor (Homo sapiens) | 6.58
CN1C(=O)CN2c3c(cccc31)C1CN(CCCC(=O)c3ccc(F)cc3)CCC12 (stereo not drawn) [Comparative embodiment 1, reference compound] | D2S receptor (Homo sapiens) | 6.44
Cn1c(=O)c(=O)n2c3c(cccc31)C1(C)CN(CCCC(=O)c3ccc(F)cc3)CCC21 (stereo not drawn) | D2S receptor (Homo sapiens) | 7.03
CN1CCN2c3c(cccc31)C1CN(CCCC(=O)c3ccc(F)cc3)CCC12 (stereo not drawn) [Comparative embodiment 2, reference compound] | D2S receptor (Homo sapiens) | 6.21
